targetOrTestSystem: Cytochrome P450 3A4 (Homo sapiens)
Sequence (P08684 whole entry): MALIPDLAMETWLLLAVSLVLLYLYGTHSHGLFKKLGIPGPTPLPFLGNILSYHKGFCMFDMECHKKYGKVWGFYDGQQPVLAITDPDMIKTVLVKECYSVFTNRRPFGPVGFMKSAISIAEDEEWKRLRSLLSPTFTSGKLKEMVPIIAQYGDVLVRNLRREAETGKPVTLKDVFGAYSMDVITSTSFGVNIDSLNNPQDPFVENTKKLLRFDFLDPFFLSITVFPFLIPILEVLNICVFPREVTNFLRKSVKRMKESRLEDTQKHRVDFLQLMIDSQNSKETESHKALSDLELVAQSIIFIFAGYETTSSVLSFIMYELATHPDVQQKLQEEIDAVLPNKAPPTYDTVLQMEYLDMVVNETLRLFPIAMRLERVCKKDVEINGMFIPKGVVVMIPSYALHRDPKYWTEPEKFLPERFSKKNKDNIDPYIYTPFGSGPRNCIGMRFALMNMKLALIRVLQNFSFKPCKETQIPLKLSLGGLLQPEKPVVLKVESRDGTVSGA
I'd be grateful if you could share measured IC50 for these entries.

Below, each entry is followed by its recorded IC50 result.
O=C(N[C@@H]1CN2CCC1CC2)c1cccc2oc(C3CC3)nc12: > 100 µM
COc1ccccc1-c1nc2c(C(=O)N[C@@H]3CN4CCC3CC4)cccc2o1: > 50 µM
O=C(N[C@@H]1CN2CCC1CC2)c1cccc2oc(N3CCOCC3)nc12: > 100 µM

Quick one: give me IC50 for each item below, same order please.
1. CN1[C@@H]2CCC[C@H]1C[C@H](NC(=O)c1cccc3oc(C4CC4)nc13)C2
2. COc1ccccc1-c1nc2c(C(=O)N[C@@H]3C[C@H]4CCC[C@@H](C3)N4C)cccc2o1
3. CN1[C@@H]2CCC[C@H]1C[C@H](NC(=O)c1cccc3oc(N4CCOCC4)nc13)C2

// result
1: > 50 µM; 2: 1.1 µM; 3: > 50 µM

====

experimentalProtocol: Bioavailability in rat at 10 mg/kg, po or 1 mg/kg, iv
Type: ADME, organism-based
conditionSummary: in vivo
For each record, write down the corresponding bioavailability.
Please state the value followed by its unit.

Recorded bioavailability, per entry:
Cc1[nH]cnc1CN1CCc2c(c3ccccc3n2C)C1=O: 100%
Cc1nccn1CC1CCc2c(c3ccccc3n2C)C1=O (stereo not drawn): 21%
CN1[C@@H]2CCC[C@H]1C[C@H](NC(=O)c1cccc3oc(C4CC4)nc13)C2: 32%
O=C(N[C@@H]1CN2CCC1CC2)c1cccc2oc(C3CC3)nc12: 13%
O=C(N[C@@H]1CN2CCC1CC2)c1cccc2oc(N3CCOCC3)nc12: 100%

Items follow; give bioavailability for each.
1. COc1ccccc1-c1nc2c(C(=O)N[C@@H]3C[C@H]4CCC[C@@H](C3)N4C)cccc2o1
2. CN1[C@@H]2CCC[C@H]1C[C@H](NC(=O)c1cccc3oc(N4CCOCC4)nc13)C2
3. COc1ccccc1-c1nc2c(C(=O)N[C@@H]3CN4CCC3CC4)cccc2o1

// result
1. 44%
2. 35%
3. 100%

====

targetOrTestSystem: 5-hydroxytryptamine receptor 3A (Homo sapiens, UniProt P46098)
Sequence (P46098 whole entry): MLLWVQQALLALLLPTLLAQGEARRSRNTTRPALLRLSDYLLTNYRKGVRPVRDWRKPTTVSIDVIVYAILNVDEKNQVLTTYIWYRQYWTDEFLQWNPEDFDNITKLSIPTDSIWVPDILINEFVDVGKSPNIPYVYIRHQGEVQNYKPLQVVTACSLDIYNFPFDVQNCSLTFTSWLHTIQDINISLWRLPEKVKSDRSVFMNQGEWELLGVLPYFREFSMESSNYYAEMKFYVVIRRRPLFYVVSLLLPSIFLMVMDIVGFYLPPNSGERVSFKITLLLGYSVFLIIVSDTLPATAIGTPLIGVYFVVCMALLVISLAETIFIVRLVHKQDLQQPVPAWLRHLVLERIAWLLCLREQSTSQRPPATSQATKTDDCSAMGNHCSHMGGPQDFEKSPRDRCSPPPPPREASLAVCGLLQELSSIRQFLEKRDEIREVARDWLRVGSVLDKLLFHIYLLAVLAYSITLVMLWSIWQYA
readout: log10 Ki (log10 of the value in nM)
Annotation: log10 of Ki, nM basis.

Example cases with answers are listed next.
CC(C)N(C)c1nc2c(C(=O)N[C@@H]3CN4CCC3CC4)cccc2o1: 1.82
CC(C)[C@H]1COCCN1c1nc2c(C(=O)N[C@@H]3C[C@H]4CCC[C@@H](C3)N4C)cccc2o1: 0.70
CC(C)C[C@H]1COCCN1c1nc2c(C(=O)N[C@@H]3C[C@H]4CCC[C@@H](C3)N4C)cccc2o1: 0.54

# per-item lookup of log10 Ki; items listed below
1. CCC[C@H]1COCCN1c1nc2c(C(=O)N[C@@H]3C[C@H]4CCC[C@@H](C3)N4C)cccc2o1
2. CC[C@H]1COC[C@H](C)N1c1nc2c(C(=O)N[C@@H]3C[C@H]4CCC[C@@H](C3)N4C)cccc2o1
3. CN1[C@@H]2CCC[C@H]1C[C@H](NC(=O)c1cccc3oc(N4CCNCC4)nc13)C2

// result
0.59
0.00
1.86

Required: log10 Ki, one value per compound below.
1. C[C@H]1CNCCN1c1nc2c(C(=O)N[C@@H]3C[C@H]4CCC[C@@H](C3)N4C)cccc2o1
2. CCN(CC)c1nc2c(C(=O)N[C@@H]3CN4CCC3CC4)cccc2o1
3. COc1ccc(-c2nc3c(C(=O)N[C@@H]4C[C@H]5CCC[C@@H](C4)N5C)cccc3o2)cc1

// result
1: 1.22; 2: 1.09; 3: 1.27
